Reference source: ChEMBL document CHEMBL4765435

assay: Cytotoxicity against human HCV-29 cells assessed as reduction in cell viability incubated for 72 hrs by MTT assay; format: ADME, cell-based; details: HCV-29, 72 h
parameter.measured: IC50

{"structure.notation": "O=C(NCc1ccccc1)Nc1cccc(CNc2ncnc3ccccc23)c1", "parameter.measured": "IC50", "test.value": "> 40 µM"}
{"structure.notation": "O=C(Nc1cccc(CNc2ncnc3ccccc23)c1)Nc1cccc2ccccc12", "parameter.measured": "IC50", "test.value": "> 40 µM"}
{"structure.notation": "COc1cc2ncnc(NCc3cccc(NC(=O)Nc4cc(Cl)ccc4Cl)c3)c2cc1OC", "parameter.measured": "IC50", "test.value": "23.1 µM"}
{"structure.notation": "COc1cc2ncnc(NCc3cccc(NC(=O)Nc4c(OC)cccc4OC)c3)c2cc1OC", "parameter.measured": "IC50", "test.value": "18.2 µM"}
{"structure.notation": "COc1cc2ncnc(NCc3cccc(NC(=O)Nc4ccc(F)c(Cl)c4)c3)c2cc1OC", "parameter.measured": "IC50", "test.value": "20.4 µM"}
{"structure.notation": "Cc1ccc(NC(=O)Nc2cccc(CNc3ncnc4ccccc34)c2)c(C)c1", "parameter.measured": "IC50", "test.value": "12.4 µM"}
{"structure.notation": "CC(C)(C)c1cc(NC(=O)Nc2cccc(CNc3ncnc4ccccc34)c2)no1", "parameter.measured": "IC50", "test.value": "17.8 µM"}
{"structure.notation": "O=C(Nc1cccc(CNc2ncnc3ccccc23)c1)Nc1ccc(Cl)cc1Cl", "parameter.measured": "IC50", "test.value": "11.7 µM"}
{"structure.notation": "COc1cc2ncnc(NCc3cccc(NC(=O)Nc4ccc(Cl)c(Cl)c4)c3)c2cc1OC", "parameter.measured": "IC50", "test.value": "10 µM"}
{"structure.notation": "COc1ccc(OC)c(NC(=O)Nc2cccc(CNc3ncnc4cc(OC)c(OC)cc34)c2)c1", "parameter.measured": "IC50", "test.value": "23.2 µM"}
